- System: human RORγ (Homo sapiens, UniProt P51449)
- Construct: from Ser253 to Lys518 for human RORγ; expressed in transfected cells; host or cells: CHO cells (transient co-transfection with pG5-Luc)
- Sequence (P51449 253-518): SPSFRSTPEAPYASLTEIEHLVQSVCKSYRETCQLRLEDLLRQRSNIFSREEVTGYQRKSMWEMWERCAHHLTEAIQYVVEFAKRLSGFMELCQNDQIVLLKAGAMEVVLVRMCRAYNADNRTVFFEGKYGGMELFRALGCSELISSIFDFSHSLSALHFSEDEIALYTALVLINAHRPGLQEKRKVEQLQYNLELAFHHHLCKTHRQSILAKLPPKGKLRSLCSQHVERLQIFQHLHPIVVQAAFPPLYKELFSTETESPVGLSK
- Procedure Details: In-vitro reporter gene assay for inhibitory activity against RORγ transcription, Test Method B (pFA/hRORγ LBD / pG5-Luc in CHO cells)
- Type: cell-based
- Cond: luciferase reporter, CHO cells, 2 days
EC50 strictly less than 0.03 µM = T. Otherwise F.

Check out these entries, answers already filled in.
[
  {
    "Molecule": "C[C@H]1CCC2(c3ccc(C4C(C(C)(C)C)C4(F)F)c(Cl)c3)NC(=O)N(C34CCC(C(=O)O)(C3)C4)C=C2[C@@H]1C (single isomer, unassigned) [Example 116]",
    "Classification": "F"
  },
  {
    "Molecule": "CC1C2=CN(C34CC(C(=O)O)(C3)C4)C(=O)N[C@]2(c2ccc(CCC(C)(C)C)c(Cl)c2)COC1(C)C (single isomer, unassigned) [Example 110]",
    "Classification": "T"
  },
  {
    "Molecule": "CC(C)C1CC[C@]2(c3ccc(CCC(C)(C)C)c(Cl)c3)NC(=O)N(C34CC(C(=O)O)(C3)C4)C=C2C1 (single isomer, unassigned) [Example 98]",
    "Classification": "F"
  },
  {
    "Molecule": "CC1C2=CN(C34CC(C(=O)O)(C3)C4)C(=O)N[C@]2(c2ccc(CCC(C)(C)C)c(Cl)c2)CCC1(C)C (single isomer, unassigned) [Example 118]",
    "Classification": "F"
  }
]

Consider now this further molecule.
Problem: is_below(EC50, 0.03 µM) for CC1CC[C@]2(c3ccc(CCC(C)(C)C)c(Cl)c3)NC(=O)N(C34CCC(C(=O)O)(C3)C4)C=C2C1 (single isomer, unassigned) [Example 111] ?
Solution: F

* * *

- System: mouse RORγ (Mus musculus, UniProt P51450)
- Construct: from Ile251 to Lys516 for mouse RORγ; expressed in transfected cells; host or cells: CHO cells (transient co-transfection with pG5-Luc)
- Sequence (P51450 251-516): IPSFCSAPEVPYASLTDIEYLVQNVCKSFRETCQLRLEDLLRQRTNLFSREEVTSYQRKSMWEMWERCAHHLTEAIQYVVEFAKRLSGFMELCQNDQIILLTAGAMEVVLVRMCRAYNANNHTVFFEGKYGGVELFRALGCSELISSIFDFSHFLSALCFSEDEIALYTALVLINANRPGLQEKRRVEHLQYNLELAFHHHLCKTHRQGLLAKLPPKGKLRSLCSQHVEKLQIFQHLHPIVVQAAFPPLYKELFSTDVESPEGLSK
- Procedure Details: In-vitro reporter gene assay for inhibitory activity against RORγ transcription, Test Method B (pFA/mRORγ LBD / pG5-Luc in CHO cells)
- Type: cell-based
- Cond: luciferase reporter, CHO cells, 2 days
Measurement Name: EC50 (µM)
Write it as a number; the unit µM goes unstated.

[
  {
    "Compound": "CC1C2=CN(C34CC(C(=O)O)(C3)C4)C(=O)N[C@@]2(c2ccc(CCC(C)(C)C)c(Cl)c2)COC1(C)C (single isomer, unassigned)",
    "Endpoint Unit": "µM",
    "Measured Value": 5.05
  },
  {
    "Compound": "CC1CC[C@@]2(c3ccc(CCC(C)(C)C)c(Cl)c3)NC(=O)N(C34CC(C(=O)O)(C3)C4)C=C2C1 (single isomer, unassigned) [Example 92]",
    "Endpoint Unit": "µM",
    "Measured Value": 0.019
  }
]

Problem: Given CC1C2=CN(C34CC(C(=O)O)(C3)C4)C(=O)NC2(c2ccc(CCC(C)(C)C)c(Cl)c2)CC1(C)C (single isomer, unassigned) [Example 35] , report its EC50 on mouse RORγ (Mus musculus, UniProt P51450).
Solution: 4.97

* * *

- System: mouse RORγ (Mus musculus, UniProt P51450)
- Construct: from Ile251 to Lys516 for mouse RORγ; expressed in transfected cells; host or cells: CHO cells (transient co-transfection with pG5-Luc)
- Procedure Details: In-vitro reporter gene assay for inhibitory activity against RORγ transcription, Test Method A (GAL4-mRORγ LBD / pG5-Luc in CHO cells)
- Type: cell-based
- Cond: luciferase reporter, 2 days
# Lookup of reported EC50 keyed by entry

Known EC50 results, listed for orientation:
[
  {
    "Molecule": "CC(C)(C)CCc1ccc(C23CC(C)(C)CC2=CN(CCC(=O)O)C(=O)N3)cc1Cl (single isomer, unassigned) [Example 32]",
    "Measured Value": "0.018 µM"
  },
  {
    "Molecule": "CCOC(=O)CCN1C=C2C(CN)CCCC2(c2ccc(CCC(C)(C)C)c(Cl)c2)NC1=O (racemic) [Example 47]",
    "Measured Value": "8.83 µM"
  }
]

Problem: Retrieve EC50 measured for CC(C)(C)CCc1ccc(C23CCCC2=CNC(=O)N3)cc1Cl (racemic) [Example 23] and print it.
Solution: 0.106 µM

Problem: Retrieve EC50 measured for COCCC1CCC2(c3ccc(CCC(C)(C)C)c(Cl)c3)NC(=O)N(CCC(=O)O)C=C12 (single isomer, unassigned) [Example 27] and print it.
Solution: 0.039 µM

Problem: Retrieve EC50 measured for CC(C)(C)CCc1ccc([C@]23CCCC(C)(C)C2=CN(CCC(=O)O)C(=O)N3)cc1Cl (single isomer, unassigned) [Example 37] and print it.
Solution: 5.51 µM

Problem: Retrieve EC50 measured for CC(C)(C)CCOc1ccc(C23CCCCC2=CN(CCC(=O)O)C(=O)N3)cc1Cl (racemic) [Example 61] and print it.
Solution: 0.068 µM

Problem: Retrieve EC50 measured for CC1=C2CCCCC2(c2ccc(CCC(C)(C)C)c(Cl)c2)NC(=O)N1CCC(=O)O (racemic) [Example 42] and print it.
Solution: 0.139 µM

Problem: Retrieve EC50 measured for CC(C)(C)CCc1ccc(C23CCC(C)(C)C2=CN(CCCC(=O)O)C(=O)N3)cc1 (racemic) [Example 2] and print it.
Solution: 0.022 µM

Problem: Retrieve EC50 measured for CC(C)CCOc1ccc(C23CCCCC2=CN(CCC(=O)O)C(=O)N3)cc1Cl (racemic) [Example 59] and print it.
Solution: 0.149 µM

* * *

# Lookup of reported EC50 keyed by entry
- System: mouse RORγ (Mus musculus)
- Construct: from Ile251 to Lys516 for mouse RORγ; expressed in transfected cells; host or cells: CHO cells (transient co-transfection with pG5-Luc)
- Procedure Details: In-vitro reporter gene assay for inhibitory activity against RORγ transcription, Test Method A (GAL4-mRORγ LBD / pG5-Luc in CHO cells)
- Format: cell-based
- Cond: luciferase reporter, 2 days

Known EC50 results, listed for orientation:
[
  {
    "Molecule": "COCC1CC[C@]2(c3ccc(CCC(C)(C)C)c(Cl)c3)NC(=O)N(C34CC(C(=O)O)(C3)C4)C=C2C1 (single isomer, unassigned) [Example 84]",
    "Measured Value": "> 10 µM"
  },
  {
    "Molecule": "CC(=O)NCC1CCC2(c3ccc(CCC(C)(C)C)c(Cl)c3)NC(=O)N(CCC(=O)O)C=C12 (racemic) [Example 30]",
    "Measured Value": "> 20 µM"
  }
]

Attention now turns to another entry.
Problem: Retrieve EC50 measured for CC1CCC[C@]2(c3ccc(CCC(C)(C)C)c(Cl)c3)NC(=O)N(C34CC(C(=O)O)(C3)C4)C=C12 (single isomer, unassigned) [Example 78] and print it.
Solution: > 3.2 µM

* * *

- System: mouse RORγ (Mus musculus, UniProt P51450)
- Construct: from Ile251 to Lys516 for mouse RORγ; expressed in transfected cells; host or cells: CHO cells (transient co-transfection with pG5-Luc)
- Procedure Details: In-vitro reporter gene assay for inhibitory activity against RORγ transcription, Test Method A (GAL4-mRORγ LBD / pG5-Luc in CHO cells)
- Format: cell-based
- Cond: luciferase reporter, 2 days
- Procedure: In-Vitro Assay for Inhibitory Activity Against RORγ Transcription Inhibitory activity against RORγ transcription was assessed for test compounds by either of the following Test Method A or B of reporter gene assay. […] RORγ transcriptional activity was detected as the intracellular luciferase activity using SteadyLite HTS Reporter Gene Assay System (Perkin Elmer). […] After the incubation at room temperature for 10 minutes, luminescence of each well was measured with a microplate reader. […]
Measurement Name: EC50 (µM)
Write it as a number; the unit µM goes unstated.

Known EC50 results, listed for orientation:
[
  {
    "Compound": "CC(C)(C)CCc1ccc(C23COC(C)(C)C2=CN(CCC(=O)O)C(=O)N3)cc1Cl (single isomer, unassigned) [Example 5]",
    "Endpoint Unit": "µM",
    "EC50": 0.009
  },
  {
    "Compound": "CC(C)(C)CCc1ccc(C23CCCCC2=CN(CCC(=O)O)C(=O)N3)cc1Cl (racemic)",
    "Endpoint Unit": "µM",
    "EC50": 0.021
  }
]

Attention now turns to another entry.
Problem: Retrieve EC50 measured for CC(C)(C)CCc1ccc(C23CCCC(CC#N)C2=CN(CCC(=O)O)C(=O)N3)cc1Cl (racemic) and print it.
Solution: 0.029

These data points were gathered from patent US20220119355A1.
